The reported measurements were obtained from patent US20240316022A1.

Assignment: determine reported Kd for the given compounds.
- Test system: FGFR2 (Homo sapiens, UniProt P21802)
- Construct: made in house; host or cells: E. coli derived from BL21, infected with T7 phage
- Sequence (P21802 22-821): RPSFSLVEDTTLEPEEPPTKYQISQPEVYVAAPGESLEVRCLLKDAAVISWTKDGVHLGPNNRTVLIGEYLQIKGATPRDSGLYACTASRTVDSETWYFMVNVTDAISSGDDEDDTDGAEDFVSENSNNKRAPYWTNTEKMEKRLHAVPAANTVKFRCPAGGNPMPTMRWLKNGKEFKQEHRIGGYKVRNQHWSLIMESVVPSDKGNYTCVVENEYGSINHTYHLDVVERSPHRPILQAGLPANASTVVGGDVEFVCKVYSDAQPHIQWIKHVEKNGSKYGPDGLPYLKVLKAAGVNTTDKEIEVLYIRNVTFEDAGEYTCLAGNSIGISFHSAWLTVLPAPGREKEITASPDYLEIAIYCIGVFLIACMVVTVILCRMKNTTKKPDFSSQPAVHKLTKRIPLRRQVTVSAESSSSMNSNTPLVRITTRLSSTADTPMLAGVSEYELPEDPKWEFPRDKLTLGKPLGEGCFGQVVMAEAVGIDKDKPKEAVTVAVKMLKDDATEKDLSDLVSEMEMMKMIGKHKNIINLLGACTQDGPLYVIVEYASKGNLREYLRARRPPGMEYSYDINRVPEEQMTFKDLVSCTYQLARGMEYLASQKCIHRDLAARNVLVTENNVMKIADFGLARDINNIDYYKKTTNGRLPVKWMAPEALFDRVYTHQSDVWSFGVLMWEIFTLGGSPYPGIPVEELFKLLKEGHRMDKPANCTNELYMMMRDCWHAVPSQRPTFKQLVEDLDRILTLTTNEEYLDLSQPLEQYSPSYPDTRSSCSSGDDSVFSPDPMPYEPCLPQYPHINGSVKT
- Assay protocol: Kinase binding assay (kinase-tagged T7 phage, qPCR), Kd
- Test parameters: read-out: FGFR2 (Kd nM)

Input line: Notebook: pull reported Kd for FGFR2 (Homo sapiens, UniProt P21802), entry "Cc1cc(-c2n[nH]c3ccc(O[C@H](C)c4c(Cl)cnc(C)c4Cl)cc23)cnc1N[C@@H]1CCOC1"
Output line: 0.1 to 100 nM

Input line: Proceed to "C[C@@H](Oc1ccc2[nH]nc(-c3ccc(N)nc3)c2c1)c1c(Cl)cncc1Cl"
Output line: 0.1 to 100 nM

Input line: Queued: "COc1cc(C#N)cc(-c2n[nH]c3ccc(O[C@@H](C)c4c(C)cnnc4C)cc23)c1"
Output line: > 1000 nM

Input line: Likewise for "C[C@@H](Oc1ccc2[nH]nc(-c3cnc4c(c3)N(C(=O)OCCCN(C)C)CCO4)c2c1)c1c(Cl)cncc1Cl" ?
Output line: 250 to 1000 nM

Input line: Please give the result for "COc1c(C#N)cc(-c2n[nH]c3ccc(O[C@H](C)c4c(C)cnnc4C)cc23)cc1C#N" too.
Output line: > 1000 nM

Input line: Query "Cc1cnnc(C)c1[C@@H](C)Oc1ccc2[nH]nc(-c3cc(C#N)cc(C#N)c3)c2c1" next
Output line: > 1000 nM

Input line: Continue with "Cc1ncc(Cl)c([C@@H](C)Oc2ccc3[nH]nc(-c4ccc(O[C@H]5CCOC5)nc4)c3c2)c1Cl"
Output line: 0.1 to 100 nM

====

For each entry below, report its Kd value.
- Test system: FGFR3 (Homo sapiens, UniProt P22607)
- Construct: made in house; host or cells: E. coli derived from BL21, infected with T7 phage
- Sequence (P22607 23-806): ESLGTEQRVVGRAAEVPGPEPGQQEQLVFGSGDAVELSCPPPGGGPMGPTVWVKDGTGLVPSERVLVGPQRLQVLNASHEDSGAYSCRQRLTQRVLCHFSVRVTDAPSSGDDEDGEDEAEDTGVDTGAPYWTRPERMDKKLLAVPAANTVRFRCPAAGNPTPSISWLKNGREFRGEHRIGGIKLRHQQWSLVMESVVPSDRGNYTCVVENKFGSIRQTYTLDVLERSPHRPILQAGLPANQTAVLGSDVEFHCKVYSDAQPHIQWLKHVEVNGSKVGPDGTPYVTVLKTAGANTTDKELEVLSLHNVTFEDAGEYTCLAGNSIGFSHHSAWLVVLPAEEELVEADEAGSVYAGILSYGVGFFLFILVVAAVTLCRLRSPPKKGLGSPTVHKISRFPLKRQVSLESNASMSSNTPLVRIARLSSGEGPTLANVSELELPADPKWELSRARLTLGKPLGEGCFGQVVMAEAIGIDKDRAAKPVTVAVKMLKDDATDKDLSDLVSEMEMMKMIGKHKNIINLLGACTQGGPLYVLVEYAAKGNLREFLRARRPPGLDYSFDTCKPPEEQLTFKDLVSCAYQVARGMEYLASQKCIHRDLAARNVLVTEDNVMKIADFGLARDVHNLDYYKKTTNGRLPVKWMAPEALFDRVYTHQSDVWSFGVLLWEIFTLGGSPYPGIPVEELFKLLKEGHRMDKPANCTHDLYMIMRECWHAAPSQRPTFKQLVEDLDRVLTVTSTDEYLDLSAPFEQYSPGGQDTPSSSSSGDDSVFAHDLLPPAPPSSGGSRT
- Assay protocol: Kinase binding assay (kinase-tagged T7 phage, qPCR), Kd
- Test parameters: read-out: FGFR3 (Kd nM)

Input line: Which measured Kd value corresponds to "Cc1cc(-c2n[nH]c3ccc(O[C@H](C)c4c(Cl)cnc(C)c4Cl)cc23)cnc1N[C@@H]1CCOC1" ?
Output line: 0.1 to 100 nM

Input line: And then C[C@@H](Oc1ccc2[nH]nc(-c3ccc(NC(=O)N4CCC(O)C4)nc3)c2c1)c1c(Cl)cncc1Cl (stereo partly shown) , what is it?
Output line: 0.1 to 100 nM

Input line: Here is the next compound: "Cc1ncc(Cl)c([C@@H](C)Oc2cc3c(-c4cnc5c(c4)N(S(C)(=O)=O)CCO5)n[nH]c3cc2Cl)c1Cl"
Output line: 100 to 250 nM

Input line: Queued: "Cc1cnnc(C)c1[C@@H](C)Oc1ccc2[nH]nc(-c3cc(C#N)cc(C4CCCC4)c3)c2c1"
Output line: > 1000 nM

Input line: Note, next up: "C[C@@H](Oc1ccc2[nH]nc(-c3cnc4c(c3)N(C(=O)c3ccccn3)CCO4)c2c1)c1c(Cl)cncc1Cl"
Output line: 0.1 to 100 nM

Input line: Queued: "C[C@@H](Oc1ccc2[nH]nc(-c3cnc(N[C@H]4CCOC4)c(C#N)c3)c2c1)c1c(Cl)cncc1Cl"
Output line: 0.1 to 100 nM

Input line: Continue with "Cc1cnnc(C)c1[C@H](C)Oc1ccc2[nH]nc(-c3cc(C#N)cc(N4CC5(CN(C)C5)C4)c3)c2c1"
Output line: > 1000 nM
